Test system: P388 leukemia ip, CD2F1 mice, survival T/C
Assay: NCI In Vivo Anticancer Drug Screen. Data for tumor model P388 Leukemia (intraperitoneal) in CD2F1 (CDF1) mice
Settings: endpoint: median survival time; dose: 400.0 mg/kg/injection; schedule: Q01DX001 (ip); vehicle: saline with Tween-80; higher = longer survival
Method: The antitumor activity of compounds was measured in mice bearing transplantable tumors. Survival or tumor size were measured and the results are expressed as the measurement made in the treated group (T) divided by the measurement made in the vehicle treated control group (C). The tumor model used in this assay is P388 Leukemia (intraperitoneal) in CD2F1 (CDF1) mice
Toxic doses and inconclusive results are not listed.
Measured quantity: T/C

Here are 6 compounds together with their reported answers.
[[record]]
compound = "COc1nc2c(ccn2C2OC(COC(C)=O)C(OC(C)=O)C(OC(C)=O)C2OC(C)=O)c(=O)[nH]1 (stereo unspecified)"
measured_quantity = "T/C"
measured_value = "100 % of control"

[[record]]
compound = "COC(=O)C1=C(C(=O)OC)N2c3ccccc3-n3c(-c4ccccc4)cc(OC)c3C2(C)C(C(=O)OC)=C1C(=O)OC (stereo unspecified)"
measured_quantity = "T/C"
measured_value = "92 % of control"

[[record]]
compound = "CCOC(=O)C1=NN(C)C(=O)C1"
measured_quantity = "T/C"
measured_value = "104 % of control"

[[record]]
compound = "N#C/C(N)=C(\\C#N)N=Cc1ccc(-c2ccccc2)cc1"
measured_quantity = "T/C"
measured_value = "86 % of control"

[[record]]
compound = "C=C1OC(CC(C)C)=C(C(=O)OC(C)(C)C)C1C (stereo unspecified)"
measured_quantity = "T/C"
measured_value = "100 % of control"

[[record]]
compound = "O=C(O)Cc1cn2cc(Br)ccc2n1"
measured_quantity = "T/C"
measured_value = "104 % of control"


Go through the items and report each one's T/C.
1. c1ccc2c3c(ccc2c1)OCCOCCOCCOc1ccc2ccccc2c1-3
2. NC(=S)N/N=C/c1[nH]c2cc(Br)c(Br)cc2c1Br
3. COc1nc2c(c(O)cn2C2OCC(OC(C)=O)C(OC(C)=O)C2OC(C)=O)c(=O)n1C (stereo unspecified)
4. C=C(C)c1c2c(SC)ccc(SC)c2cc2c(SC)ccc(SC)c12
5. CCCCCCCCC1SC1CCCCCCCCOC(=O)CCCCCCCC1SC1CCCCCCCC (stereo unspecified)

1. 87 % of control
2. 98 % of control
3. 99 % of control
4. 95 % of control
5. 95 % of control

====

Tested on: P388 leukemia ip, CD2F1 mice, survival T/C
Experiment: NCI In Vivo Anticancer Drug Screen. Data for tumor model P388 Leukemia (intraperitoneal) in CD2F1 (CDF1) mice
Conditions: endpoint: median survival time; dose: 400.0 mg/kg/injection; schedule: Q01DX001 (ip); vehicle: Klucel (hydroxypropylcellulose) (HPC); higher = longer survival
Toxic doses and inconclusive results are not listed.
Measured quantity: T/C

Check out these entries, answers already filled in.
[[record]]
compound = "Cc1ccc(S(=O)(=O)N/N=C/c2c(Cl)n(C(=O)c3ccccc3F)c3ccccc23)cc1"
measured_value = "86 % of control"

[[record]]
compound = "O=c1oc2cc(-c3c(O)c4ccccc4oc3=O)c(O)cc2s1"
measured_value = "106 % of control"

[[record]]
compound = "O=c1[nH]cc(-c2ccccc2)c(=O)[nH]1"
measured_value = "96 % of control"

[[record]]
compound = "CC(C)(O)c1ccccc1S(=O)c1ccccc1 (stereo not drawn)"
measured_value = "92 % of control"

[[record]]
compound = "Cc1ccc(-c2nc3n(c2/C=N/NS(=O)(=O)c2ccc(C)cc2)CCS3)cc1"
measured_value = "91 % of control"


Below are 6 compounds. Give each one its T/C.
1. CN(C)c1ccc(C2Sc3ccccc3S2)cc1
2. CCCCCCCCCC(=O)Oc1c2ccoc2cc2oc(=O)ccc12
3. CC12CSC(C)(SC1)SC2
4. CC(=O)N=c1sccn1CC(=O)c1ccccc1
5. O=C(O)C1(Cc2ccccc2)C(=O)C=Cc2ccccc21 (stereo not drawn)
6. O=C(Nc1ccccc1)C1(Cl)CCCCC1

1: 97 % of control; 2: 103 % of control; 3: 95 % of control; 4: 101 % of control; 5: 97 % of control; 6: 91 % of control

Hi there! I need T/C for each item below, if you can.
1. CC1(CC(=O)O)OC(c2ccccc2)=CC1=O (stereo not drawn)
2. COC(=O)NN(C(=O)OC)C12CCCCC1N(C(=O)OC)N(C(=O)OC)c1ccccc12 (stereo not drawn)

1: 92 % of control; 2: 100 % of control

Taken from PubChem BioAssay AID330.
